molecular target: Gonadotropin-releasing hormone receptor (Homo sapiens) (UniProt P30968); assay: Human gonadotropin-releasing hormone receptor (GnRHR) small molecule agonists, calcium flux assay in GnRHR-HEK293 cells (AID 1920063); conditions: calcium flux fluorescence, agonist mode; series mostly up to 57.6 µM; note: nearly all actives have a fitted effect of over 35% in size
Sequence (P30968 whole entry, looked up): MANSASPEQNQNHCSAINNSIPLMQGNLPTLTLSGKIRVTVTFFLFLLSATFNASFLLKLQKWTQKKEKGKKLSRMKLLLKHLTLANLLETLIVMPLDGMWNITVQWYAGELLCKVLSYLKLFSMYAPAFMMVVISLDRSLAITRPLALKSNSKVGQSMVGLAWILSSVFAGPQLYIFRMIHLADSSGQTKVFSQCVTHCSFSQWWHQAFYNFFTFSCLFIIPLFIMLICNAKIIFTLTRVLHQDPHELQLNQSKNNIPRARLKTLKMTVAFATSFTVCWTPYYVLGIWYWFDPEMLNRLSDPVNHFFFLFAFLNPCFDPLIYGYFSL
The source made the active and inactive calls. Calls come from the whole dose curve.
Quantity kind: activity change

Worked examples follow.
Compound | Quantity kind | Value measured
CN(C)[C@@H]1C(=O)C(C(N)=O)=C(O)[C@@]2(O)C(=O)C3=C(O)c4c(O)ccc(Cl)c4[C@@H](O)[C@H]3C[C@@H]12 | activity change | inactive
COc1ccc2c(c1)c1c3n2CCN(C)C3=NCC1 | activity change | inactive
NCCCN(CCO)CCO | activity change | inactive
Cc1nc(Nc2ncc(C(=O)Nc3c(C)cccc3Cl)s2)cc(N2CCN(CCO)CC2)n1 | activity change | inactive
O=C1CCCCCO1 | activity change | inactive
Cc1cc(Nc2ccc(O)cc2)ccc1N | activity change | inactive
CCCOC(=O)CC | activity change | inactive
CCN(CC)CC | activity change | inactive
CS(C)=O | activity change | inactive
O=C(O)CNC(=O)CNC(=O)CNC(=O)CSC(=O)c1ccccc1 | activity change | inactive

Note to self: activity change recorded for `CC(C)NC(=O)c1ccc(C=O)cc1` was inactive

Note to self: activity change recorded for `CC1=Nc2ccccc2C1(C)C` was inactive

Note to self: activity change recorded for `Cc1cc(O)c2c(c1)C(=O)c1cc(O)cc(O)c1C2=O` was inactive

Note to self: activity change recorded for `C=Cc1ccncc1` was inactive

Note to self: activity change recorded for `CCN(CC)CC(=O)Nc1c(C)cccc1C` was inactive

Note to self: activity change recorded for `c1cnc(N2CCN(Cc3ccc4c(c3)OCO4)CC2)nc1` was inactive

Note to self: activity change recorded for `CCCNC(C)(C)COC(=O)c1ccccc1` was inactive

Note to self: activity change recorded for `CC(=O)Nc1ccc(O)cc1` was inactive
